Data provenance: PubChem BioAssay (NCI)

test system: UACC-257 melanoma; test: NCI tumour cell line growth inhibition, 48 h
Returns one of Condition met or Condition not met; Condition met when TGI is >= 60 µM.

Answered examples (7):
{"compound": "CCCCCCCC(=O)Nc1nc2[nH]c(CN3CCN(Cc4cccc(I)c4)CC3)c(CN3CCN(Cc4cccc(I)c4)CC3)c2c(=O)[nH]1", "classification": "Condition not met"}
{"compound": "CCOc1ccc(Nc2ccnc3cc(Cl)ccc23)cc1", "classification": "Condition met"}
{"compound": "C/C1=C\\[C@@H](C)C[C@@H](C)OC(=O)[C@@H](C)NC(=O)[C@H](Cc2ccc(O)c(Br)c2)N(C)C(=O)CNC(=O)[C@H](C)C1", "classification": "Condition not met"}
{"compound": "OC(c1cc2ccccc2[nH]1)C(O)(c1cc2ccccc2[nH]1)c1cc2ccccc2[nH]1 (stereo not drawn)", "classification": "Condition met"}
{"compound": "COc1ccc2c(c1)/C(=C\\c1c(-c3ccccc3)nc3sccn13)C(=O)N2", "classification": "Condition met"}
{"compound": "COc1ccc2c(c1)C(=O)c1c-2n(CCCN=[N+]=[N-])c(=O)c2cc([N+](=O)[O-])ccc12", "classification": "Condition met"}
{"compound": "NC1=Nc2ccccc2Sc2nccn21", "classification": "Condition met"}

Prompt: Answer whether TGI of `CCc1cc2c(cc1C(=O)CCC(=O)O)CC1(C2)Cc2cc(CC)c(C(=O)CCC(=O)O)cc2C1` is greater than or equal to 60 µM.
Response: Condition met
